// reported pKd for each item listed
molecular target: T1, soluble human FcRn (human, UniProt P55899 24-297; P61769 21-119, biotinylated (Sulfo-NHS-LC-Biotin) in the ELISA; amine-coupled to CM5 chip in SPR); assay: SPR, pH 6
T1 construct: also called shFcRn; biotinylated shFcRn
T1 sequence (P55899 24-297 limits assumed, chain 1 of 2): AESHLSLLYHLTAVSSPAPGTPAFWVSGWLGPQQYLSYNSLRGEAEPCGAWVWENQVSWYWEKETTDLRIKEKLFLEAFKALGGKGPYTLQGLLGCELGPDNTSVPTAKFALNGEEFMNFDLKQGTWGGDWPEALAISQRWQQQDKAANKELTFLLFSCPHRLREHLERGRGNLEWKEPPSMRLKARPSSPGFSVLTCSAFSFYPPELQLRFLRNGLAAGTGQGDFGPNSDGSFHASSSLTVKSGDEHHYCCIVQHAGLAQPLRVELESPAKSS
T1 sequence (P61769 21-119 limits assumed, chain 2 of 2): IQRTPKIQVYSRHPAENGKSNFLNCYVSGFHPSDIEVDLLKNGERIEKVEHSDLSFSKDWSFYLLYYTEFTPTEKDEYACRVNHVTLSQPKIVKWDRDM
pKd: −log10 of the molar value. Bridge positions count the residues as written; N and C are the ends. Square brackets hold non-standard residues; d marks the D form. Ends that are not written are not given here.

| binder | pKd |
| --- | --- |
| QRFXTGHFGGLYPDNGP (Dab at 4; side-chain lactam bridge Dab 4-Asp 14; C-terminal amide) [Peptide No. 81] | 5.08 |
| QRFDTGHFG[dA]LYPKNGP-NH2 (lactam 4-14; N-terminus assumed; SMILES CC(C)C[C@@H]1NC(=O)[C@@H](C)NC(=O)CNC(=O)[C@H](Cc2ccccc2)NC(=O)[C@H](Cc2c[nH]cn2)NC(=O)CNC(=O)[C@H]([C@@H](C)O)NC(=O)[C@@H](NC(=O)[C@H](Cc2ccccc2)NC(=O)[C@H](CCCNC(=N)N)NC(=O)[C@@H](N)CCC(N)=O)CC(=O)NCCCC[C@@H](C(=O)N[C@@H](CC(N)=O)C(=O)NCC(=O)N2CCC[C@H]2C(N)=O)NC(=O)[C@@H]2CCCN2C(=O)[C@H](Cc2ccc(O)cc2)NC1=O) [Peptide No. 105] | 5.68 |
| QRFXTGHFGGLYPENGP (Dab at 4; side-chain lactam bridge Dab 4-Glu 14; C-terminal amide) [Peptide No. 72] | 5.32 |
